Species: Rattus norvegicus
protocol_notes: Open TG-GATES - Regimen: Daily Repeat
Format: toxicity, organism-based, Sprague-Dawley
Parameters: regimen Daily Repeat, gender Male, age 6 weeks
condition_summary: in vivo, po, 300 mg/kg, […], tissue Plasma, route gavage, dose level Middle, time 7 day

{"columns": ["compound", "Na"],
 "data": [
  ["CCOc1ccc(NC(=O)CC(C)O)cc1 (stereo not given)", "143.8 meq/L"],
  ["CCOC(=O)CCC(=O)O[C@H]1[C@H](O[C@@H]2[C@@H](C)[C@H](O[C@H]3C[C@@](C)(OC)[C@@H](O)[C@H](C)O3)[C@@H](C)C(=O)O[C@H](CC)[C@@](C)(O)[C@H](O)[C@@H](C)C(=O)[C@H](C)C[C@@]2(C)O)O[C@H](C)C[C@@H]1N(C)C [ERYTHROMYCIN ETHYLSUCCINATE]", "142 meq/L"],
  ["NC(N)=Nc1nc(CSCCC(N)=NS(N)(=O)=O)cs1", "141.4 meq/L"],
  ["COC1=CC(=O)C[C@@H](C)[C@]12Oc1c(Cl)c(OC)cc(OC)c1C2=O", "142.6 meq/L"],
  ["COc1ccc2[nH]c([S+]([O-])Cc3ncc(C)c(OC)c3C)nc2c1 (stereo not given)", "140.8 meq/L"]
]}
